tested.system: URAT-1 transporter (Homo sapiens (Human))
procedure.details: URAT-1 inhibitor activity: [14C]-uric acid uptake in CHO-URAT1(L)GFP#8 (CHO#8) cells, scintillation proximity
Assay type: cell-based
run.conditions: inhibition of [14C]-uric acid (30 nM) uptake into CHO#8 cells; compound 0 to 10 μM; 4 parameter logistic fit
Description: The nucleotide sequence for the long isoform of URAT1 (NM_144585) was C-terminally fused to that of enhanced green fluorescent protein (eGFP) (hereinafter referred to as URAT1(L)GFP). The combined sequence was codon-optimised and custom synthesized. […] The potency of the compounds of formula (I) as inhibitors of the URAT-1 transporter was determined as follows. […] Assay ready flasks were generated by the same method, except the cells were not cultured in blasticidin. […]
endpoint.label: pIC50
As a rule, pIC50 stands for the negative log10 of the concentration, concentration in M.

API: value(readout= pIC50, system= URAT-1 transporter (Homo sapiens (Human)), query= `N#Cc1ccc(Oc2ccc(S(=O)(=O)Nc3ccc(F)cn3)cc2C#N)cc1F` ) 7.28

API: value(readout= pIC50, system= URAT-1 transporter (Homo sapiens (Human)), query= `N#Cc1cc(S(=O)(=O)Nc2ccccn2)ccc1Oc1ccc(Cl)cc1I` ) 6.14

API: value(readout= pIC50, system= URAT-1 transporter (Homo sapiens (Human)), query= `Cc1cc(Oc2ccc(S(=O)(=O)Nc3ccc(F)cn3)cc2C#N)c(C(C)C)cc1Cl` ) 6.10

API: value(readout= pIC50, system= URAT-1 transporter (Homo sapiens (Human)), query= `N#Cc1cc(S(=O)(=O)Nc2ccc(F)cn2)ccc1Oc1ccccc1Br` ) 6.99

API: value(readout= pIC50, system= URAT-1 transporter (Homo sapiens (Human)), query= `N#Cc1ccc(Oc2ccc(S(=O)(=O)Nc3cccnc3)cc2C#N)cc1Cl` ) 6.38

API: value(readout= pIC50, system= URAT-1 transporter (Homo sapiens (Human)), query= `N#Cc1ccc(Oc2ccc(S(=O)(=O)Nc3ccccn3)cc2C#N)cc1Cl` ) 6.98

API: value(readout= pIC50, system= URAT-1 transporter (Homo sapiens (Human)), query= `COc1cc(Cl)cc(Oc2ccc(S(=O)(=O)Nc3ccc(F)cn3)cc2C#N)c1` ) 6.90

API: value(readout= pIC50, system= URAT-1 transporter (Homo sapiens (Human)), query= `CC(C)c1cc(Oc2ccc(S(=O)(=O)Nc3ccc(F)cn3)cc2C#N)ccc1Cl` ) 5.21

API: value(readout= pIC50, system= URAT-1 transporter (Homo sapiens (Human)), query= `N#Cc1ccc(Cl)c(Oc2ccc(S(=O)(=O)Nc3ccc(F)cn3)cc2C#N)c1` ) 6.49

API: value(readout= pIC50, system= URAT-1 transporter (Homo sapiens (Human)), query= `COc1cc(F)cc(Oc2ccc(S(=O)(=O)Nc3ccc(F)cn3)cc2C#N)c1` ) 6.92

API: value(readout= pIC50, system= URAT-1 transporter (Homo sapiens (Human)), query= `N#Cc1ccc(Oc2ccc(S(=O)(=O)Nc3ccc(Cl)cn3)cc2C#N)cc1Cl` ) 7.92

API: value(readout= pIC50, system= URAT-1 transporter (Homo sapiens (Human)), query= `N#Cc1cc(S(=O)(=O)Nc2ccc(F)cn2)ccc1Oc1cc(F)cc(C(F)(F)F)c1` ) 6.01

API: value(readout= pIC50, system= URAT-1 transporter (Homo sapiens (Human)), query= `Cc1cc(Oc2ccc(S(=O)(=O)Nc3ccc(F)cn3)cc2C#N)cc(Cl)c1C` ) 6.67

* * *

Could you please report measured pIC50 for the items listed next?
tested.system: UniProt Q96S37
procedure.details: URAT-1 inhibitor activity: [14C]-uric acid uptake in CHO-URAT1(L)GFP#8 (CHO#8) cells, scintillation proximity
Assay type: cell-based
run.conditions: inhibition of [14C]-uric acid (30 nM) uptake into CHO#8 cells; compound 0 to 10 μM; 4 parameter logistic fit
pIC50: −log10 of the molar value.

API: value(readout= pIC50, system= UniProt Q96S37, query= Cc1cc(F)ccc1Oc1ccc(S(=O)(=O)Nc2ccc(F)cn2)cc1C#N [Example 145] ) 7.02

API: value(readout= pIC50, system= UniProt Q96S37, query= COc1ccc(Cl)cc1Oc1ccc(S(=O)(=O)Nc2ccc(F)cn2)cc1C#N [Example 106] ) < 5.00

API: value(readout= pIC50, system= UniProt Q96S37, query= Cc1cc(Oc2ccc(S(=O)(=O)Nc3ccc(F)cn3)cc2C#N)cc(C(C)C)c1 [Example 105] ) < 5.00

* * *

tested.system: URAT-1 transporter (Homo sapiens (Human))
procedure.details: URAT-1 inhibitor activity: [14C]-uric acid uptake in CHO-URAT1(L)GFP#8 (CHO#8) cells, scintillation proximity
Assay type: cell-based
run.conditions: inhibition of [14C]-uric acid (30 nM) uptake into CHO#8 cells; compound 0 to 10 μM; 4 parameter logistic fit
pIC50: −log10 of the molar value.
endpoint.label: pIC50

API: value(readout= pIC50, system= URAT-1 transporter (Homo sapiens (Human)), query= N#Cc1cc(S(=O)(=O)Nc2ccc(F)cn2)ccc1Oc1ccccn1 [Example 187] ) < 5.00

API: value(readout= pIC50, system= URAT-1 transporter (Homo sapiens (Human)), query= CC(C)(C)c1ccc(Oc2ccc(S(=O)(=O)Nc3ccc(F)cn3)cc2C#N)c(Cl)c1 [Example 127] ) < 5.00

API: value(readout= pIC50, system= URAT-1 transporter (Homo sapiens (Human)), query= N#Cc1ccc(Oc2ccc(S(=O)(=O)Nc3ncccn3)cc2C#N)cc1Cl [Example 90] ) < 5.45

API: value(readout= pIC50, system= URAT-1 transporter (Homo sapiens (Human)), query= COc1ccncc1Oc1ccc(S(=O)(=O)Nc2ccc(F)cn2)cc1C#N [Example 190] ) < 5.00

* * *

tested.system: URAT-1 transporter (Homo sapiens (Human))
procedure.details: URAT-1 inhibitor activity: [14C]-uric acid uptake in CHO-URAT1(L)GFP#8 (CHO#8) cells, scintillation proximity
Type: cell-based
run.conditions: inhibition of [14C]-uric acid (30 nM) uptake into CHO#8 cells; compound 0 to 10 μM; 4 parameter logistic fit
endpoint.label: IC50

Find the recorded IC50 belonging to `CC(C)(C)c1cc(Oc2ccc(S(=O)(=O)Nc3ccc(F)cn3)cc2C#N)ccc1C#N` and report it. > 10 µM

Find the recorded IC50 belonging to `N#Cc1cc(Oc2ccc(S(=O)(=O)Nc3ncccn3)cc2C#N)ccc1F` and report it. > 10 µM

Find the recorded IC50 belonging to `Cc1cc(Oc2ccc(S(=O)(=O)Nc3ccc(F)cn3)cc2C#N)ccc1F` and report it. 0.043 µM

Find the recorded IC50 belonging to `N#Cc1ccc(Oc2ccc(S(=O)(=O)Nc3ccc(F)cn3)cc2F)cc1F` and report it. > 1.67 µM

* * *

tested.system: URAT-1 transporter (Homo sapiens (Human), UniProt Q96S37)
Sequence (Q96S37 other isoform, or with tags, fused parts or gaps): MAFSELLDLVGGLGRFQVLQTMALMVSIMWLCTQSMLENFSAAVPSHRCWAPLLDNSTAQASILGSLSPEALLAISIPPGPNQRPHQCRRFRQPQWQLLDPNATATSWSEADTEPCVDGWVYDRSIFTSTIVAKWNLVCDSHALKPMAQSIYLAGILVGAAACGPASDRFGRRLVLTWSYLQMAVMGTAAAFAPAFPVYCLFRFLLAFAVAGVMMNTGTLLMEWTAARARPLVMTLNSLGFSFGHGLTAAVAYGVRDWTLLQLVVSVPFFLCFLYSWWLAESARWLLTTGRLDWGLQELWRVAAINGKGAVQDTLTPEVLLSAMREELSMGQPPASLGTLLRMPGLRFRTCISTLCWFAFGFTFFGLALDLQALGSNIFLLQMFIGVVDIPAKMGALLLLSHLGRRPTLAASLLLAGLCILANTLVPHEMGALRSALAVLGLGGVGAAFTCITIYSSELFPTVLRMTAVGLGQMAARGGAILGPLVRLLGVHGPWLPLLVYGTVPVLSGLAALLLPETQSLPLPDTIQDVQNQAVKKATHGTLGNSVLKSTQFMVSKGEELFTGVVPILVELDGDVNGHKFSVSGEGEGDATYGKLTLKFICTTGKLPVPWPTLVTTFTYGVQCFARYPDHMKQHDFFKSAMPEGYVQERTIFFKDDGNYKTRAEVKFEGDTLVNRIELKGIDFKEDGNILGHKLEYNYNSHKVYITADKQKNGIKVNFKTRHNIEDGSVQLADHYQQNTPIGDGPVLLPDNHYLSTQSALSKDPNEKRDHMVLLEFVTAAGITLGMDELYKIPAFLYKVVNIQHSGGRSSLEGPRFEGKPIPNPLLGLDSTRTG
procedure.details: URAT-1 inhibitor activity: [14C]-uric acid uptake in CHO-URAT1(L)GFP#8 (CHO#8) cells, scintillation proximity
Assay type: cell-based
run.conditions: inhibition of [14C]-uric acid (30 nM) uptake into CHO#8 cells; compound 0 to 10 μM; 4 parameter logistic fit
pIC50: −log10 of the molar value.
endpoint.label: pIC50

API: value(readout= pIC50, system= URAT-1 transporter (Homo sapiens (Human), UniProt Q96S37), query= CCc1ccc(Oc2ccc(S(=O)(=O)Nc3ccc(F)cn3)cc2C#N)cc1 [Example 50] ) < 5.00

API: value(readout= pIC50, system= URAT-1 transporter (Homo sapiens (Human), UniProt Q96S37), query= N#Cc1cc(S(=O)(=O)Nc2ccc(F)cn2)ccc1Oc1ccc(N)cc1 [Example 224] ) < 5.00

API: value(readout= pIC50, system= URAT-1 transporter (Homo sapiens (Human), UniProt Q96S37), query= Cc1ccc(C(C)C)cc1Oc1ccc(S(=O)(=O)Nc2ccc(F)cn2)cc1C#N [Example 174] ) < 5.00

API: value(readout= pIC50, system= URAT-1 transporter (Homo sapiens (Human), UniProt Q96S37), query= O=S(=O)(Nc1cccnn1)c1ccc(Oc2ccc(Cl)cc2OC(F)F)c(Cl)c1 [Example 84] ) < 5.05

API: value(readout= pIC50, system= URAT-1 transporter (Homo sapiens (Human), UniProt Q96S37), query= O=S(=O)(Nc1ncccn1)c1cc(Cl)c(Oc2ccc(F)c(F)c2)cc1F [compound 210] ) < 5.00

API: value(readout= pIC50, system= URAT-1 transporter (Homo sapiens (Human), UniProt Q96S37), query= N#Cc1cc(S(=O)(=O)Nc2ccc(F)cn2)ccc1Oc1cccc(C#N)c1Cl [Example 64] ) < 5.95

API: value(readout= pIC50, system= URAT-1 transporter (Homo sapiens (Human), UniProt Q96S37), query= N#Cc1ccc(Oc2ccc(S(=O)(=O)Nc3ccnnc3)cc2C#N)cc1Cl [Example 94] ) < 5.00

API: value(readout= pIC50, system= URAT-1 transporter (Homo sapiens (Human), UniProt Q96S37), query= N#Cc1ccc(Oc2c(F)cc(S(=O)(=O)Nc3ccc(F)cn3)cc2C#N)cc1Cl [Example 248] ) 6.49

API: value(readout= pIC50, system= URAT-1 transporter (Homo sapiens (Human), UniProt Q96S37), query= CC(C)(C)c1cccc(Oc2ccc(S(=O)(=O)Nc3ccc(F)cn3)cc2C#N)c1 [Example 129] ) < 5.00

API: value(readout= pIC50, system= URAT-1 transporter (Homo sapiens (Human), UniProt Q96S37), query= Cc1ccc(Oc2ccc(S(=O)(=O)Nc3ccc(F)cn3)cc2C#N)c(Cl)c1 [Example 42] ) 6.42

API: value(readout= pIC50, system= URAT-1 transporter (Homo sapiens (Human), UniProt Q96S37), query= COc1cccc(Oc2ccc(S(=O)(=O)Nc3ccc(F)cn3)cc2C#N)c1 [Example 208] ) < 5.00
